Catalogue of solubility values
Experiment: Solubility of compound in 0.05 M phosphate buffer at pH 7.4
Type: physicochemical

# count of solved cases: 2
solubility lookup needed for COc1ccc(C2=NN(C3CCCCCC3)C(=O)[C@@H]3CC=CC[C@H]23)cc1OCCCCOc1ccc(-c2nnnn2C)cc1 (racemic) , thanks.
< 2 µM

I have this molecule here, COc1ccc(C2=NN(C3CCCCCC3)C(=O)[C@@H]3CC=CC[C@H]23)cc1OCCCCOc1ccc(-c2nnn[nH]2)cc1 (racemic) , and I need its recorded solubility.
75 µM

# evaluate next
Item COc1ccc(C2=NN(C3CCCCCC3)C(=O)[C@@H]3CC=CC[C@H]23)cc1OCCCCOc1ccc(-c2nnn(C)n2)cc1 (racemic) has what recorded solubility?
< 2 µM
